Values from patent US12502369B2

- Test system: A549
- assay: Proliferation assay (CellTiter Glo), A549
- Type: cell-based
- test.settings: Homo sapiens, relative EC50, 96 hours, read-out: Re EC50
reported.endpoint: pEC50
In plain terms, pEC50 is the concentration in mol/L turned into minus its base-10 logarithm.

Specify the recorded pEC50 for CC(=O)O[C@@]12C[C@@H](C)[C@]3(O)C4C=C(C)C(=O)[C@@]4(O)CC(CO)=C[C@H]3[C@@H]1C2(C)C (stereo partly shown) [Compound K-101A, Prostratin] , system: A549. 6.57

---

- Test system: H727
- assay: Proliferation assay (CellTiter Glo), H727
- Format: cell-based
- test.settings: Homo sapiens, NCI-H727, relative EC50, 96 hours, read-out: Re EC50
reported.endpoint: EC50 (nM)
State just the number; it will be interpreted in nM.

Report EC50 for CC(=O)O[C@@]12C[C@@H](C)[C@]3(O)C4C=C(C)C(=O)[C@@]4(O)CC(CO)=C[C@H]3[C@@H]1C2(C)C (stereo partly shown) [Compound K-101A, Prostratin] 190
